- Test: Test 4: metabolic stability test in human hepatic microsome
- Format: in vitro ADME
- Assay setup: 0.1 mg/mL microsome, 0.1 μmol/L compound, NADPH, 37° C., 30 minutes
We begin with a simple list: items and their reported Metabolic stability in human hepatic microsome.
Endpoint: Metabolic stability in human hepatic microsome (mL/min/mg protein)

{"columns": ["Compound", "Units label", "Bound sign", "Observed"],
 "data": [
  ["O=C1c2cccnc2CCN1CCN1CCN(c2nsc3ccccc23)CC1 [Example 9]", "mL/min/mg protein", "=", 0.100],
  ["Cc1nc2c(o1)C(=O)N(CCN1CCC(c3noc4ccccc34)CC1)CC2 [Example 35]", "mL/min/mg protein", "<", 0.01],
  ["O=C1c2ncccc2CCN1CCN1CCN(c2nsc3cc(F)ccc23)CC1 [Example 27]", "mL/min/mg protein", "=", 0.048],
  ["O=C1c2cn(C3CC3)nc2CCN1CCN1CCC(c2noc3ccccc23)CC1 [Example 76]", "mL/min/mg protein", "=", 0.018],
  ["Cn1cc2c(n1)C(=O)N(CCN1CCC(c3noc4ccccc34)CC1)CCC2 [Example 48]", "mL/min/mg protein", "<", 0.01],
  ["Cn1ccc2c1CCN(CCN1CCC(c3noc4ccccc34)CC1)C2=O [Example 60]", "mL/min/mg protein", "=", 0.018],
  ["Cn1cc2c(n1)CCN(CCN1CCN(c3noc4ccccc34)CC1)C2=O [Example 81]", "mL/min/mg protein", "<", 0.01],
  ["O=c1c2ncccc2ccn1CCN1CCC(c2noc3cc(F)ccc23)CC1 [Example 12]", "mL/min/mg protein", "=", 0.02],
  ["Cn1ncc2c1CCCC(CCN1CCC(c3noc4ccccc34)CC1)C2=O (stereo not drawn) [Example 30]", "mL/min/mg protein", "=", 0.065]
]}

====

- Test: Test 4: metabolic stability test in human hepatic microsome
- Assay type: in vitro ADME
- Assay setup: 0.1 mg/mL microsome, 0.1 μmol/L compound, NADPH, 37° C., 30 minutes
We begin with a simple list: items and their reported Metabolic stability in human hepatic microsome.
Endpoint: Metabolic stability in human hepatic microsome

{"columns": ["Compound", "Observed"],
 "data": [
  ["O=C1c2oc(C3CC3)nc2CCN1CCN1CCC(c2noc3ccccc23)CC1", "0.056 mL/min/mg protein"],
  ["[2H]C([2H])([2H])Oc1cc2c(cn1)C(=O)N(CCN1CCN(c3nsc4ccccc34)CC1)CC2([2H])[2H]", "0.210 mL/min/mg protein"],
  ["COc1ccc2c(n1)C(=O)N(CCN1CCN(c3noc4ccccc34)CC1)CC2", "0.095 mL/min/mg protein"],
  ["Cc1nc2c(o1)CCCN(CCN1CCC(c3noc4ccccc34)CC1)C2=O", "<0.05 mL/min/mg protein"],
  ["CC(C)c1nc2c(o1)C(=O)N(CCN1CCC(c3noc4ccccc34)CC1)CC2", "0.097 mL/min/mg protein"],
  ["O=C1c2[nH]ncc2CCN1CCN1CCC(c2noc3ccccc23)CC1", "0.013 mL/min/mg protein"],
  ["O=c1c2ncccc2ccn1CCN1CCN(c2noc3ccccc23)CC1", "<0.05 mL/min/mg protein"],
  ["Cn1ccc2c1CCN(CCN1CCN(c3noc4ccccc34)CC1)C2=O", "<0.05 mL/min/mg protein"],
  ["Cc1ccc2onc(C3CCN(CCN4CCc5cccnc5C4=O)CC3)c2c1", "0.050 mL/min/mg protein"],
  ["Cc1nc2c(o1)C(=O)N(CCN1CCN(c3nsc4ccccc34)CC1)CC2", "0.032 mL/min/mg protein"],
  ["Cc1cc2c(n1C)CCCN(CCN1CCC(c3noc4ccccc34)CC1)C2=O", "<0.05 mL/min/mg protein"],
  ["Cc1cncc2c1CCN(CCN1CCN(c3noc4ccccc34)CC1)C2=O", "<0.05 mL/min/mg protein"],
  ["Cn1ncc2c1CCC(CCN1CCC(c3noc4ccccc34)CC1)C2=O (stereo not drawn)", "0.017 mL/min/mg protein"],
  ["COc1cc2c(cn1)C(=O)N(CCN1CCC(c3noc4ccccc34)CC1)CC2 [Example 20]", "0.091 mL/min/mg protein"],
  ["Cn1cnc2c1CCN(CCN1CCN(c3nsc4ccccc34)CC1)C2=O", "<0.01 mL/min/mg protein"],
  ["O=C1c2nc[nH]c2CCN1CCN1CCC(c2noc3ccccc23)CC1", "<0.05 mL/min/mg protein"],
  ["Cn1cc2c(n1)C(=O)N(CCN1CCC(c3noc4ccccc34)CC1)CC2", "<0.05 mL/min/mg protein"],
  ["Cc1cncc2c1CCN(CCN1CCC(c3noc4ccccc34)CC1)C2=O", "0.083 mL/min/mg protein"]
]}

Data origin, for the record: patent US11466007B2
